assay: Octanol/water partition coefficient by HPLC
measured.parameter: logP
Just the number, please.

Kindly note the recorded logP for CC(=O)O[C@H]1C(=O)[C@@]2(C)[C@H]([C@H](OC(=O)c3ccccc3)[C@]3(O)C[C@H](OC(=O)[C@H](Oc4cccc[n+]4C)[C@@H](NC(=O)c4ccccc4)c4ccccc4)C(C)=C1C3(C)C)[C@]1(OC(C)=O)CO[C@@H]1C[C@@H]2O , which is 1.7

###

assay: Solubility in water by HPLC (sonication, centrifugation, injection of supernatant); type: physicochemical; conditions: water; HPLC; table value
measured.parameter: solubility (µM)
Your answer should be a plain number; it is taken to be in µM.

Kindly note the recorded solubility for CC(=O)O[C@H]1C(=O)[C@@]2(C)[C@H]([C@H](OC(=O)c3ccccc3)[C@]3(O)C[C@H](OC(=O)[C@H](Oc4cccc[n+]4C)[C@@H](NC(=O)c4ccccc4)c4ccccc4)C(C)=C1C3(C)C)[C@]1(OC(C)=O)CO[C@@H]1C[C@@H]2O [taxol-2'-MPT] , which is 1700
